Biological target: purified PARP protein (Homo sapiens, UniProt P09874)
Sequence (P09874 whole entry): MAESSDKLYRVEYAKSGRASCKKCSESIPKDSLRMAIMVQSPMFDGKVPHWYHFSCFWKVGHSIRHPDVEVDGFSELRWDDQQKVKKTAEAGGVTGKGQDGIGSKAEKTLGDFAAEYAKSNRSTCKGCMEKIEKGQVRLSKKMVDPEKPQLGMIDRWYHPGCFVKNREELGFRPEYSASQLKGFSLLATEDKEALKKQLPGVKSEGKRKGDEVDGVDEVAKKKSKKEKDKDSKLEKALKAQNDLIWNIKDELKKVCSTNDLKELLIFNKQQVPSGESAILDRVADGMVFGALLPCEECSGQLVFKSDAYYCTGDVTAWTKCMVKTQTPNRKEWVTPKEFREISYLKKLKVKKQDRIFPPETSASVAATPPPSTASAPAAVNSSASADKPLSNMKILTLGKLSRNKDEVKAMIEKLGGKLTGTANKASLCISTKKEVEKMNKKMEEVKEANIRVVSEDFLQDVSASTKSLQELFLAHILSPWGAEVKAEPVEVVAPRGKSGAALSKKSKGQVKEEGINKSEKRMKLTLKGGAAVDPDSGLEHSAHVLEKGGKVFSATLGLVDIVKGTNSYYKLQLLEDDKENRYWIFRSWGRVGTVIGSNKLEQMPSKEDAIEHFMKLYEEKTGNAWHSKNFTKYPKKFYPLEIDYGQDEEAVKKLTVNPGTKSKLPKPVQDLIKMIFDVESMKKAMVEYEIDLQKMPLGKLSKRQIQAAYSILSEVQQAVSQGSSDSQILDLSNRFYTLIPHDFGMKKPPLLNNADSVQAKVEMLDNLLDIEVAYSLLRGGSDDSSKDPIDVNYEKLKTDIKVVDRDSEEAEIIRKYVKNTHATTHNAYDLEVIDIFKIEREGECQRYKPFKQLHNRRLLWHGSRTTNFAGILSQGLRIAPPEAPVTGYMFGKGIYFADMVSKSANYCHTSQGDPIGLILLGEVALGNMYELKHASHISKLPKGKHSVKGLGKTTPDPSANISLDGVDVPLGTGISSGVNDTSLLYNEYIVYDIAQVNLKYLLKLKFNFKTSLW
Assay: PARP enzyme inhibition assay
Assay type: biochemical
Conditions: 20 nM purified PARP (5 nM for tight-binding inhibitors), 500 μM NAD+, 25° C.; several values in one cell = repeat determinations; read-out: Inhibition Constant Ki
Counter-ions that a name gives are not always drawn.
Give measured Ki for each item. Keep answers brief.
Give the quantity in nM, number only.

Item `O=C1NCCn2c(-c3ccc(-c4cccnc4)cc3)nc3cccc1c32` with purified PARP protein (Homo sapiens, UniProt P09874) - Ki?
2.8

Proceed to `CN1CCN(C(=O)c2nc3cccc4c3n2CCNC4=O)CC1`
116

Proceed to `O=C1NCCn2c(-c3ccc(Cl)nc3)nc3cccc1c32`
4.4

Proceed to `O=C1NCCn2c(-c3ccc(-c4ccncc4)cc3)nc3cccc1c32`
3.8

Proceed to `O=C1NCCn2c(-c3ccc(=O)n(Cc4ccccc4)c3)nc3cccc1c32`
9.9

Proceed to `CC(=O)c1cn2c3c(cccc13)C(=O)NCC2`
606

Proceed to `O=C1NCCn2c(-c3ccc(CN4CCC[C@H]4CO)cc3)nc3cccc1c32`
3.9

Proceed to `N#Cc1ccc(-c2nc3cccc4c3n2CCNC4=O)cc1`
2.2

Proceed to `O=C1NCCn2c(-c3cccc(C(F)(F)F)c3)nc3cccc1c32`
11.2

Proceed to N/N=C(\N)c1c(-c2ccc(F)cc2)n2c3c(cccc13)C(=O)NCC2 [Example 156, Hydrochloride]
57

Proceed to `NC(=S)c1c(-c2ccc(F)cc2)n2c3c(cccc13)C(=O)NCC2`
219

Proceed to `O=C1NCCn2c(-c3ccc(-c4nn[nH]n4)cc3)nc3cccc1c32`
96

Proceed to O=C1NCCn2c(-c3ccc(CN4CCCC(CO)C4)cc3)nc3cccc1c32 (stereo not shown)
6.6

Proceed to `C[C@H]1Cn2c(-c3ccc(CN4CCCC4)cc3)nc3cccc(c32)C(=O)N1`
8

Proceed to CC(C)(C)OC(=O)NC1CCN(Cc2ccc(-c3nc4cccc5c4n3CCNC5=O)cc2)C1 (stereo not shown)
11

Proceed to C[S+]([O-])c1nc2cccc3c2n1CCNC3=O (stereo not shown)
12

Proceed to `O=C1NCCn2c(-c3ccc(OCCO)cc3)nc3cccc1c32`
7.3

Proceed to `O=C(c1ccccc1)c1cn2c3c(cccc13)C(=O)NCC2`
337

Proceed to `O=C1NCCn2c(-c3ccc(Cl)cc3)cc3cccc1c32`
11

====

Biological target: purified PARP protein (Homo sapiens, UniProt P09874)
Experiment: PARP enzyme inhibition assay
Type: biochemical
Conditions: Inhibition Constant Ki (nM)
Give measured Ki for each item. Keep answers brief.
Give the quantity in nM, number only.

Return reported Ki; argument: O=C1NCCn2c(-c3ccc(F)cc3)c(-c3ccn[nH]3)c3cccc1c32 [Example 160]
249

Proceed to O=C1NCCn2c(CCc3ccccc3)cc3cccc1c32 [Example 36]
27

Proceed to O=C1NCCn2cc(/C(=N/O)c3ccccc3)c3cccc1c32 [Example 168]
38

Proceed to O=C1NCCn2cc(C(O)c3ccccc3)c3cccc1c32 (stereo not shown) [Example 166]
380

====

System: A549 cells
Experiment: Cytotoxicity potentiation assay
Format: cell-based
Settings: test compound 0.4 μM, ratio of IC50 of topotecan alone to IC50 of topotecan with test compound
Just a reminder that ties go to Not fulfilled: only Cytotoxicity Potentiation PF50 strictly below 2 counts as Fulfilled.

Regarding `O=C1NCCn2c(-c3ccc(C4CCNCC4)cc3)nc3cccc1c32` , kindly confirm whether its Cytotoxicity Potentiation PF50 is beneath 2.
Not fulfilled

Proceed to `CN(C)CCc1ccc(-c2nc3cccc4c3n2CCNC4=O)cc1`
Fulfilled

Proceed to CC(c1ccc(-c2nc3cccc4c3n2CCNC4=O)cc1)N(C)C (stereo not drawn)
Not fulfilled

Proceed to `CN(C)Cc1cccc(-c2cc3cccc4c3n2CCNC4=O)c1`
Fulfilled

Proceed to `O=C1NCCn2c(-c3ccc(-c4ccccn4)cc3)nc3cccc1c32`
Not fulfilled

Proceed to `O=C1NCCn2c(-c3cccc(C(F)(F)F)c3)nc3cccc1c32`
Fulfilled

Proceed to `O=C1NCCn2c(-c3ccc(CN4CCCC4)cc3)nc3cccc1c32`
Not fulfilled

====

System: A549 cells
Assay: Cytotoxicity potentiation assay
Assay type: cell-based
Conditions: test compound 0.4 μM, ratio of IC50 of topotecan alone to IC50 of topotecan with test compound
Give measured Cytotoxicity Potentiation PF50 for each item. Keep answers brief.
Quick one: just the number, no unit, thanks!

Item O=C1NCCn2c(-c3ccncc3)nc3cccc1c32 [Example 3] with A549 cells - Cytotoxicity Potentiation PF50?
1.4

Proceed to CN1CCCC1c1ccc(-c2nc3cccc4c3n2CCNC4=O)cc1 (stereo not drawn) [Example 149]
2.6

Proceed to O=C1NCCn2c(-c3ccc(F)cc3)nc3cc(F)cc1c32 [Example 18]
2

Proceed to CN1CCC(c2ccc(-c3nc4cccc5c4n3CCNC5=O)cc2)CC1 [Example 141]
2.3

Proceed to O=C1NCCn2c(-c3cccs3)nc3cccc1c32 [Example 8]
1.9

Proceed to O=C1NCCn2c(-c3ccc(F)cc3)nc3cccc1c32 [Example 2]
1.6

Proceed to CN1CCCCC1c1ccc(-c2nc3cccc4c3n2CCNC4=O)cc1 (stereo not drawn) [Example 132]
2.4

Proceed to O=C1NCCn2c(-c3ccc(CN4CCCC4)cc3)nc3cc(F)cc1c32 [Example 211]
2.3

Proceed to O=C1NCCn2c(-c3ccc(CNC4Cc5ccccc5C4)cc3)nc3cccc1c32 [Example 197]
2.5

Proceed to O=C1NCCn2c(-c3cccnc3)nc3cccc1c32 [Example 7]
1.4

Proceed to Cc1c(-c2ccc(F)cc2)n2c3c(cccc13)C(=O)NCC2 [Example 50]
1.1

Proceed to O=C1NCCn2c(-c3ccc(F)cc3)cc3cccc1c32 [Example 37]
1.8

Proceed to O=C1NCCn2c(-c3ccc(-c4cccnc4)cc3)nc3cccc1c32 [Example 134]
2.5

Proceed to O=C1NCCn2c(-c3cccc(Oc4ccncc4)c3)nc3cccc1c32 [Example 17]
1.7

Proceed to O=C1NCCn2c(-c3ccc(CN4CC=CC4)cc3)nc3cccc1c32 [Example 171]
2.5

Proceed to O=C1NCCn2cc(/C=N/O)c3cccc1c32 [Example 46]
1.3

Proceed to CNCc1ccc(-c2nc3cccc4c3n2CCNC4=O)cc1 [Example 75]
1.8

Proceed to CN(CCc1cc2ccccc2[nH]1)Cc1ccc(-c2nc3cccc4c3n2CCNC4=O)cc1 [Example 207]
2.4

Proceed to CN(C)Cc1ccc(-c2nc3cccc4c3n2CCNC4=O)cc1 [Example 58]
2.0

Proceed to O=C1NCCn2c(-c3ccc(Cl)cc3)c(/C=N/O)c3cccc1c32 [Example 39]
1

Proceed to C[C@H]1Cn2c(-c3ccc(CN4CC=CC4)cc3)nc3cccc(c32)C(=O)N1 [Example 223]
2.1

Proceed to CN(C)Cc1ccc(-c2cc3cc(F)cc4c3n2CCNC4=O)cc1 [Example 170]
1.9

Proceed to O=C1NCCn2c(-c3ccc(C4CCCNC4)cc3)nc3cccc1c32 (stereo not drawn) [Example 142]
2.2

Proceed to C[C@H]1Cn2c(-c3ccc(CN4CCCC4)cc3)nc3cccc(c32)C(=O)N1 [Example 233]
2.2

Proceed to COc1cccc(CCNCc2ccc(-c3nc4cccc5c4n3CCNC5=O)cc2)c1 [Example 184]
2.2

Proceed to CN(C)Cc1ccc(-c2cc3cccc4c3n2CCNC4=O)cc1 [Example 82]
1.9

Proceed to O=C1NCCn2c(-c3ccccc3)nc3cccc1c32 [Example 1]
1.5

Proceed to CNCc1ccc(-c2nc3cc(F)cc4c3n2CCNC4=O)cc1 [Example 98]
2.1

Proceed to O=C1NCCn2c(-c3ccc(Cl)cc3)cc3cccc1c32 [Example 34]
1.8

Proceed to O=C1NCCn2c(-c3ccc(F)cc3)c(/C=N/O)c3cccc1c32 [Example 90]
1.2

Proceed to S=C1NCCn2c(-c3ccccc3)nc3cccc1c32 [Example 25]
1.4

Proceed to O=C1NCCn2c(-c3ccccc3Cl)nc3cccc1c32 [Example 5]
1.3

Proceed to COc1ccc(CCNCc2ccc(-c3nc4cccc5c4n3CCNC5=O)cc2)cc1 [Example 186]
2.2

====

Give measured melting point for each item. Keep answers brief.

Return reported melting point; argument: `N/C(=N\O)c1c(-c2ccc(F)cc2)n2c3c(cccc13)C(=O)NCC2`
257 to 259 °C

Proceed to `O=C1NCCn2c(-c3ccc(Cl)cc3)nc3cccc1c32`
272 to 274 °C

Proceed to `N#CCCNCc1ccc(-c2nc3cccc4c3n2CCNC4=O)cc1`
208 to 214 °C

Proceed to `O=C1NCCn2c(-c3cccc(Oc4ccncc4)c3)nc3cccc1c32`
245 to 247 °C

Reference source: patent US6548494B1
